Every entry's value here was drawn from PubChem BioAssay (NCI).

- System: SR leukemia
- ASSAY_REMARKS: NCI tumour cell line growth inhibition, 48 h; in the data active means GI50 below about 0.43 µM; inactive means the rest
Labels: active, inactive

COMPOUND	LABEL
COC1=CC(c2ccc[nH]2)=N/C1=C\c1[nH]c(C)c(C(=O)CCCCCCCCC(=O)O[C@H]2CC[C@H]3C4CCc5cc(O)ccc5C4CC[C@]23C)c1C (some centres not stated)	active
COc1ccc2[nH]c(C(=O)N3CCN(C(=O)OCc4ccc5c(Cl)cc(Cl)c(O)c5n4)CC3)cc2c1	active
O=C1c2cccc3cccc(c23)C(=O)N1CCCCCN1CCN(CCN=c2cc3n(-c4ccc(Cl)cc4)c4ccccc4nc-3cc2Nc2ccc(Cl)cc2)CC1	inactive
Cc1cccc(N2C(=O)/C(=C/C(Cl)=C/c3ccc([N+](=O)[O-])cc3)SC2=S)c1C	active
CSc1nc(Nc2cccc(NC(=O)CCl)c2)c(C#N)c(-c2cccc([N+](=O)[O-])c2)n1	active
COc1cc2c(cc1OCCNC(=O)/C=C1\C[C@H]3C=Nc4cc(OCc5ccccc5)c(OC)cc4C(=O)N3C1)N=C[C@@H]1CCCN1C2=O	inactive
CCCCCCCC(=O)OCC/C=C/C1OC1C1OC(=O)/C=C\C=C\C(=O)N(C(C)=O)C(=O)/C=C(/C)CCC2OC2C1OC(=O)NC(C)=O (configuration not stated)	inactive

----------
- Test system: HCC-2998 colon
- ASSAY_REMARKS: NCI tumour cell line growth inhibition, 48 h; in the data active = GI50 below about 0.43 µM; inactive = the rest
Labels: active, inactive

MOLECULE	LABEL
O=S(=O)(NC1=NCCN1C(=S)SN1CCn2c1nsc2=S)c1ccc(Cl)cc1	inactive
O=C1c2cc3c(cc2-c2c1c1cc(F)c(F)cc1c(=O)n2CCCn1ccnc1)OCO3	active
COc1cccc(-c2cc(C(=O)Nc3ccc(/C=C/c4ccc(OC5CCN(C)CC5)cc4)cc3)ccc2OC)c1	inactive
CCOC(=O)NC(=S)N(CC(=O)c1cc(OC)c(OC)c(OC)c1)c1ccc(Cl)cc1	inactive
CC(=O)[CH-]C(C)=O.CC(=O)[CH-]C(C)=O.[O-]c1ccccc1.[O-]c1ccccc1.[Ti+4]	inactive
O=C(Nc1n[nH]c2cc(-c3cc(F)ccc3F)ccc12)C1CC1	inactive
CCC[CH2][Sn-]([CH2]CCC)([CH2]CCC)[O]C(=O)C(C)C	active
CCCCCCCC/C=C/CCCCCCCC1=NC(C)(C)CN1C(C)(C)CO	inactive
CN1CCN(C2=NC(=O)/C(=C\c3ccc(N(C)C)cc3)S2)CC1	inactive
COc1cc(N2C(=O)[C@H](Cl)C2c2ccc(SC)cc2)cc(OC)c1OC (stereo partly specified)	active
CC1(C)CC(C)(C)c2cc(NC(=S)Nc3ccc([N+](=O)[O-])cc3)ccc2S1	inactive
CCOC(=O)Nc1ccc2nc(-c3cscn3)[nH]c2c1	inactive
COC1=CC(c2ccc[nH]2)=N/C1=C\c1[nH]c(C)c(C(=O)CCCCCCCCC(=O)O[C@H]2CC[C@H]3C4CCc5cc(O)ccc5C4CC[C@]23C)c1C (stereo partly specified)	inactive
O=C1c2cccc3cccc(c23)C(=O)N1CCCCCN1CCN(CCN=c2cc3n(-c4ccc(Cl)cc4)c4ccccc4nc-3cc2Nc2ccc(Cl)cc2)CC1	inactive
C/C(=N/NC(=S)Nc1ccccc1)c1nc2ccc(Cl)cc2[nH]1	active
O=c1[nH]c(C2CCCN2)nc2c1oc1ccc(Cl)cc12 (stereo unspecified)	inactive

----------
- Test system: MCF7 breast
- ASSAY_REMARKS: NCI tumour cell line growth inhibition, 48 h
Form field: TGI (one value per entry).

COMPOUND	VALUE_COMPARATOR	TGI [µM]
COC1/C=C/C(C)C(O)CC(O)/C=C/C(C)C(C(C)C(OC)C(C)CCC(=O)C(C)C(C/C=C/N(C)C=O)OC)OC(=O)/C=C/C=C(\C)CC(OC)CC2=CC(=O)O[C@@H](C(C)C(OC)C1)[C@H]2O (some centres undefined)	=	0.0909
Cn1c(I)c(C#C[Si](C)(C)C)c(=O)n(C(=O)c2ccccc2)c1=O	=	5.65
COc1cc2c(cc1OCCNC(=O)/C=C1\C[C@H]3C=Nc4cc(OCc5ccccc5)c(OC)cc4C(=O)N3C1)N=C[C@@H]1CCCN1C2=O	=	9.2
CC(O)c1nc(C#N)c(N)o1 (centres undefined)	>	100
COc1ccc(-c2ccc(C(=O)C=P(c3ccccc3)(c3ccccc3)c3ccccc3)cc2)cc1	=	30.2
COC1=CC(c2ccc[nH]2)=N/C1=C\c1[nH]c(C)c(C(=O)CCCCCCCCC(=O)O[C@H]2CC[C@H]3C4CCc5cc(O)ccc5C4CC[C@]23C)c1C (some centres undefined)	>	50
CCOP(=O)(/C=C/n1cc(C)c(=O)[nH]c1=O)OCC	>	100
O=S(=O)(NC1=NCCN1C(=S)SN1CCn2c1nsc2=S)c1ccc(Cl)cc1	=	17.1
NCCO/C=C/C(N)C(=O)O (centres undefined)	>	100
Nc1cc2c3c(cccc3c1)C(=O)N(CCN1CCCC1)C2=O	=	35.6
N[C@@H](CCC(=O)NC(Cc1ccccc1)C(=O)NCP(=O)(O)O)C(=O)O (some centres undefined)	>	100
Cn1c(COC(=O)NCCc2ccccn2)nc2c(N3CCOCC3)nc(Cl)nc21	=	2.95
O=C1c2ccccc2-c2nc3ccncc3n21	>	100
C[C@H]1S[C@@H](c2ccc(Cl)cc2Cl)N(NC(=O)c2ccncc2)C1=O	>	100
COc1cc2c(cc1C)NC(=O)/C2=C/c1ccnc2ccccc12	>	50
CC(C)(C)C[C@H]1N[C@@H](C(=O)NC2CCC(O)CC2)[C@H](c2cccc(Cl)c2F)[C@@]12C(=O)Nc1cc(Cl)ccc12 (some centres undefined)	=	2.98
Cn1/c(=N\N=C2\C=C3CCCCC3(C)CC2)sc2ccccc21 (centres undefined)	>	100
CCC1(O)CC(CCN(Cc2ccccc2)C(=O)OCc2ccccc2)C(OCc2ccccc2)C1O (centres undefined)	=	28.8
C[C@]12CC[C@H]3[C@@H](CC=C4C[C@@H](N5CCCC5)CC[C@@]43C)[C@@H]1C[C@H](N1CCCCC1)[C@@H]2O	>	100

----------
- Tested on: OVCAR-4 ovarian
- ASSAY_REMARKS: NCI tumour cell line growth inhibition, 48 h; in the data active means GI50 below about 0.43 µM; inactive means the rest
Labels: active, inactive

> print(dat)
                                    compound     label
 1           COc1ccc(-c2ccc(OC)c(OC)c2OC)cc1  inactive
 2  COc1ccc(-c2ccc(C3CC(c4ccccc4)=NN3)o2)c([N+](=O)[O-])c1 (centres undefined)  inactive
 3  CSc1nc(Nc2cccc(NC(=O)CCl)c2)c(C#N)c(-c2cccc([N+](=O)[O-])c2)n1  inactive
 4  CC1=NN(c2cccc(Cl)c2)C(=O)/C1=C\c1cn(CC(O)CN2CCCCC2)c2ccccc12 (centres undefined)  inactive
 5       CCOC(=O)Nc1ccc2nc(-c3cscn3)[nH]c2c1  inactive
 6  COc1ccc2[nH]c(C(=O)N3CCN(C(=O)OCc4ccc5c(Cl)cc(Cl)c(O)c5n4)CC3)cc2c1  inactive
 7  CCCC(=O)O[C@]1(C)CC[C@@H]2[C@H]3[C@@H]1[C@@H]1C[C@@](C)(O)[C@H](OC)CC[C@](C)(OC(=O)[C@@H]2C)[C@H]3O1  inactive
 8   Nc1cc2c3c(cccc3c1)C(=O)N(CCN1CCCC1)C2=O  inactive
 9  COc1cc(N2C(=O)[C@H](Cl)C2c2ccc(SC)cc2)cc(OC)c1OC (some centres undefined)    active
10  CN1CCN(C2=NC(=O)/C(=C\c3ccc(N(C)C)cc3)S2)CC1  inactive
11  CN(C)CCC(=O)Nc1ccc(-n2cc(-c3cccc(NC(=S)Nc4cccc(-c5cn(-c6ccc(NC(=O)CCN(C)C)cc6)nn5)c4)c3)nn2)cc1  inactive
12  CC1(C)CC(C)(C)c2cc(NC(=S)Nc3ccc([N+](=O)[O-])cc3)ccc2S1  inactive
13  COc1cc(C2CC(c3ccc(Nc4nc(NCCO)nc(NCCO)n4)cc3)=NN2c2cc(Cl)cc(Cl)c2)cc(OC)c1OC (centres undefined)  inactive
14  CCCCNC(c1ccc(Cl)cc1)C(O)c1ccc(Cl)cc1 (centres undefined)  inactive

----------
- System: MALME-3M melanoma
- ASSAY_REMARKS: NCI tumour cell line growth inhibition, 48 h
PROPERTY_LABEL: TGI

> print(dat)
                                   molecule   target.or.system  property.label  measured
1  Cc1cccc(C2NC(=O)c3ccccc3N2)c1 (stereo not drawn)  MALME-3M melanoma             TGI  > 100 µM
2  N[C@@H](CCC(=O)NC(Cc1ccccc1)C(=O)NCP(=O)(O)O)C(=O)O (stereo partly drawn)  MALME-3M melanoma             TGI  > 100 µM
3  O=c1c(Cc2ccc3c(c2)OCO3)nnc2sc(-c3cc(F)c(Cl)cc3Cl)nn12  MALME-3M melanoma             TGI   85.3 µM
4  COC1=CC(=O)O/C1=C(\OC)C1OC1c1ccccc1 (stereo not drawn)  MALME-3M melanoma             TGI  > 100 µM
5  O=C(CNc1ccccc1C(=O)O)Nn1cnc2ccc(S(=O)(=O)Nc3ccccc3C(=O)O)cc2c1=O  MALME-3M melanoma             TGI  > 100 µM
6  Cn1c(I)c(C#C[Si](C)(C)C)c(=O)n(C(=O)c2ccccc2)c1=O  MALME-3M melanoma             TGI   6.63 µM
7     O=c1[nH]c(=O)n(COC(CO)CO)cc1-c1ccccc1  MALME-3M melanoma             TGI  > 100 µM
8  COc1c2ccoc2nc2c(OC)c(OCC(O)C(C)(C)O)ccc12 (stereo not drawn)  MALME-3M melanoma             TGI  > 100 µM
